Origin of values: paper PMC8780434

Listed next: entries and their corresponding CC50 at 12 h.
assay: in vitro; conditions: human
Measured endpoint: CC50 at 12 h (µM)

Compound: OC(c1cc(C(F)(F)F)nc2c(C(F)(F)F)cccc12)C1CCCCN1 (centres unmarked)
Unit tag: µM
Recorded value: 30
//
Compound: OC(CNCC(O)C1CCc2cc(F)ccc2O1)C1CCc2cc(F)ccc2O1 (centres unmarked)
Unit tag: µM
Recorded value: 32.9

* * *

Reported values of VP1/Tubulin (%) for individual entries
tested on: EV71; assay: Western blot of viral VP1 in EV71-infected RD cells; details: 5 μM, EV71 MOI 1, 6 h, DMSO = 100

Compound: Fc1ccc([C@@H]2CCNC[C@H]2COc2ccc3c(c2)OCO3)cc1 [PAR, paroxetine]
Unit tag: %
VP1/Tubulin (%): 74
//
Compound: CN[C@H]1CC[C@@H](c2ccc(Cl)c(Cl)c2)c2ccccc21 [Sertraline]
Unit tag: %
VP1/Tubulin (%): 58
//
Compound: COCCCC/C(=N\OCCN)c1ccc(C(F)(F)F)cc1 [FLX, fluvoxamine]
Unit tag: %
VP1/Tubulin (%): 82
//
Compound: CN(C)CCCN1c2ccccc2Sc2ccc(Cl)cc21 [CPZ, chlorpromazine]
Unit tag: %
VP1/Tubulin (%): 109
//
Compound: CCN(CC)CCCC(C)Nc1ccnc2cc(Cl)ccc12 (centres unmarked) [CQ, chloroquine]
Unit tag: %
VP1/Tubulin (%): 52

* * *

assay: Cell viability assay (CellTiter 96 AQueous) in RD cells; conditions: human

Molecule: CCCCCCCCc1ccc(CCC(N)(CO)CO)cc1 [Fingolimod]
Unit tag: µM
CC50 at 12 h: 24.5

* * *

CC50 at 12 h values, listed per item
assay: in vitro; settings: human

Compound: OC(CNCC(O)C1CCc2cc(F)ccc2O1)C1CCc2cc(F)ccc2O1 (centres unmarked) [Nebivolol]
CC50 at 12 h [µM]: 32.7
--
Compound: OC(c1cc(C(F)(F)F)nc2c(C(F)(F)F)cccc12)C1CCCCN1 (centres unmarked) [Mefloquine]
CC50 at 12 h [µM]: 29.8

* * *

tested on: EV71; assay: Immunofluorescence assay (IFA) of anti-EV71 potency; assay type: cell-based, EV71 (strain BrCr); settings: Enterovirus A, RD cells, EV71 MOI 0.1, 12 h p.i.
IC50 listing for selected molecules.

Molecule: OC(CNCC(O)C1CCc2cc(F)ccc2O1)C1CCc2cc(F)ccc2O1 (stereo not drawn)
IC50 (µM): 4.74
--
Molecule: OC(c1cc(C(F)(F)F)nc2c(C(F)(F)F)cccc12)C1CCCCN1 (stereo not drawn)
IC50 (µM): 3.89
--
Molecule: CCCCCCCCc1ccc(CCC(N)(CO)CO)cc1
IC50 (µM): 3.59

* * *

assay: Cell viability assay (CellTiter 96 AQueous) in HeLa cells; details: human
Measured endpoint: CC50 at 12 h (µM)

Compound structure string: CCCCCCCCc1ccc(CCC(N)(CO)CO)cc1
Measured endpoint: CC50 at 12 h
Unit tag: µM
Recorded value: 21.8
